SYSTEM: UniProt:P43490
METHOD_SUMMARY: NAMPT biochemical inhibition assay (NMN quantified by mass spectrometry)
CONDITION_LABEL: NAMPT biochemical inhibition; read-out: Biochem IC50
The reader will find reported log10(IC50) values listed item by item below.
Base-10 log of IC50, unit nM.

* COc1ccc(CNS(=O)(=O)c2ccc(NC(=O)NCc3cccnc3)cc2)cc1 | 1.20
* O=C(NCc1cccnc1)Nc1ccc(S(=O)(=O)c2ccccc2Br)cc1 | 0.78
* COc1ccccc1N1CCN(S(=O)(=O)c2ccc(NC(=O)NCc3cccnc3)cc2)CC1 | 0.85

Q) Which measured log10(IC50) value corresponds to "COc1cc(-n2cccn2)ccc1S(=O)(=O)c1ccc(NC(=O)NCc2cccnc2)cc1" ?
A) 0.30

Q) Which measured log10(IC50) value corresponds to "O=C(NCc1cccnc1)Nc1ccc(S(=O)(=O)c2ccc(Cl)c(F)c2)cc1" ?
A) 0.48

Q) Which measured log10(IC50) value corresponds to "O=C(NCc1cccnc1)Nc1ccc(S(=O)(=O)N2CCN(C(=O)Cc3ccc(Cl)c(Cl)c3)CC2)cc1" ?
A) 0.57

Q) Which measured log10(IC50) value corresponds to "O=C(NCc1ccc(S(=O)(=O)c2ccccc2)cc1)Nc1ccc2ncccc2c1" ?
A) 3.35

Q) Which measured log10(IC50) value corresponds to "O=C(NCc1cncnc1)Nc1ccc(S(=O)(=O)N2CCCCC2)cc1" ?
A) 3.06

Q) Which measured log10(IC50) value corresponds to "CCN(CC)C1CCN(S(=O)(=O)c2ccc(NC(=O)NCc3cccnc3)cc2)CC1" ?
A) 0.70

Q) Which measured log10(IC50) value corresponds to "O=C(NCc1cccnc1)Nc1ccc(S(=O)(=O)NCC2CCCCC2)cc1" ?
A) 0.60

* * *

The reader will find reported pIC50 values listed item by item below.
SYSTEM: NAMPT (Homo sapiens (Human), UniProt P43490)
Sequence (P43490 whole entry): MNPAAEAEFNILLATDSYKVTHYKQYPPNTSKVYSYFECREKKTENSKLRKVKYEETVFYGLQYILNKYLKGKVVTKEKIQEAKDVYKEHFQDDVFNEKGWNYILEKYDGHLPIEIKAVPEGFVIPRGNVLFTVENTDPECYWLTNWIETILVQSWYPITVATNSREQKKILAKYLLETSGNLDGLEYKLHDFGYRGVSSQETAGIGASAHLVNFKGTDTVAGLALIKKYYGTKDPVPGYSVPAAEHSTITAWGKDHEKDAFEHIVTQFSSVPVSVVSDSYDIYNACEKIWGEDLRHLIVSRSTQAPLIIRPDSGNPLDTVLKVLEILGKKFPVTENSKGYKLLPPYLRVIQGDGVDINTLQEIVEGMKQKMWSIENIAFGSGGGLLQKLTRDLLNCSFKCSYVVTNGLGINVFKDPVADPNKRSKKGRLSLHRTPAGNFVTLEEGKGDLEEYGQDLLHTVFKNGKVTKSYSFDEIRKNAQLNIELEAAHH
METHOD_SUMMARY: NAMPT biochemical inhibition assay (NMN quantified by mass spectrometry)
CONDITION_LABEL: NAMPT biochemical inhibition; read-out: Biochem IC50
Field pIC50 (float): negative decimal logarithm of the concentration in molar.

- O=C(NCc1cccnc1)Nc1ccc(S(=O)(=O)N2CCC(CN3CCCC3=O)CC2)cc1: 8.70
- COc1cccc(F)c1S(=O)(=O)c1ccc(NC(=O)NCc2cccnc2)cc1: 8.70
- COc1ccc(OC)c(S(=O)(=O)c2ccc(NC(=O)NCc3cccnc3)cc2)c1: 9.00
- O=C(NCc1cccnc1)Nc1ccc(S(=O)(=O)c2ccc(Cl)cc2F)cc1: 8.70
- COc1cc(Cl)cc(S(=O)(=O)c2ccc(NC(=O)NCc3cccnc3)cc2)c1: 8.89

Q) Which measured pIC50 value corresponds to "O=C(NCc1cccnc1)Nc1ccc(S(=O)(=O)Nc2ccccc2-n2cccc2)cc1" ?
A) 8.52

Q) Which measured pIC50 value corresponds to "COc1ccc(C)cc1S(=O)(=O)c1ccc(NC(=O)NCc2cccnc2)cc1" ?
A) 8.40

Q) Which measured pIC50 value corresponds to "COc1ccc2ccccc2c1S(=O)(=O)c1ccc(NC(=O)NCc2cccnc2)cc1" ?
A) 8.70

Q) Which measured pIC50 value corresponds to "Cc1ccc(NS(=O)(=O)c2ccc(NC(=O)NCc3cccnc3)cc2)c(Cl)c1" ?
A) 9.00

Q) Which measured pIC50 value corresponds to "CCOCc1ccc(S(=O)(=O)c2ccc(NC(=O)NCc3cccnc3)cc2)cc1" ?
A) 9.00

Q) Which measured pIC50 value corresponds to "O=C(NCc1cccnc1)Nc1ccc(S(=O)(=O)c2ccc(F)cc2)cc1" ?
A) 8.40

Q) Which measured pIC50 value corresponds to "Cn1ncc2c(S(=O)(=O)c3ccc(NC(=O)NCc4cccnc4)cc3)cccc21" ?
A) 9.00

Q) Which measured pIC50 value corresponds to "CC(C)NC(=O)CN1CCN(S(=O)(=O)c2ccc(NC(=O)NCc3cccnc3)cc2)CC1" ?
A) 8.52
